The measurements presented in this section are drawn from patent EP3010938.

molecular target: shFcRn (human, UniProt P55899); experiment: SPR pH 6.0
Sequence (P55899 24-297, chain 1 of 2): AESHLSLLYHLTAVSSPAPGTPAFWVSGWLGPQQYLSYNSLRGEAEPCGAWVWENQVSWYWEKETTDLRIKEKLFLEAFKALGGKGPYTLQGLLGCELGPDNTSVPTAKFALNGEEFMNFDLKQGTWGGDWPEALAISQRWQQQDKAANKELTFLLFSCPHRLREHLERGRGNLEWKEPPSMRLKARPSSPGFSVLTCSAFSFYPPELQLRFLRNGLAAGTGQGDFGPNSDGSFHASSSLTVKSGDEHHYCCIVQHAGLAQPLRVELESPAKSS
Sequence (chain, as listed by the source, chain 2 of 2): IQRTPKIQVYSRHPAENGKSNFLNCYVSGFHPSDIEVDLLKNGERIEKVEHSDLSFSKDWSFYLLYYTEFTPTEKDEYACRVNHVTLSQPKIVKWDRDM
recorded_metric: koff (s⁻¹)

A11-G06 (antibody) chain 1: EVQLVESGGGLVQPGRSLRLSCAASGFTFDEYGMHWVRQAPGKGLEWVSGVSWNSGSIAYADSVRGRFTISRDNAKNSLYLQMNSLRAEDTALYYCAKGRLMDVWGQGTTVTVSS chain 2: QSALTQPASVSGSPGQSITISCTGSSSDVGGYNYVSWYQQHPGKAPKLMIYDVTKRPSGVSNRFSGSKSGNTASLTISGLQAEDEADYYGSYNNNTFYVFGTGTKVTVL; 0.000225
1Ag (antibody) chain 1: EVQLVESGGGLVQPGRSLRLSCAASGFTFDEYGMHWVRQAPGKGLEWVSGVSWNSGSIAYADSVRGRFTISRDNAKNSLYLQMNSLRAEDTALYYCAKGRSMDVWGQGTTVTVSS chain 2: QSALTQPASVSGSPGQSITISCTGSSSDVGGYNYVSWYQQHPGKAPKLMIYDVTKRPSGVSNRFSGSKSGNTASLTISGLQAEDEADYYCSSYSSSTFYVFGTGTKVTVL; 0.000222
A12-F02 (antibody) chain 1: EVQLVESGGGLVQPGRSLRLSCAASGFTFDEYGMHWVRQAPGKGLEWVSGVSWNSGSIAYADSVRGRFTISRDNAKNSLYLQMNSLRAEDTALYYCAKGRYLDVWGQGTTVTVSS chain 2: QSALTQPASVSGSPGQSITISCTGSSSDVGGYNYVSWYQQHPGKAPKLMIYDVTKRPSGVSNRFSGSKSGNTASLTISGLQAEDEADYYGSYDSNTFYVFGTGTKVTVL; 0.000305
A12-H04 (antibody) chain 1: EVQLVESGGGLVQPGRSLRLSCAASGFTFDEYGMHWVRQAPGKGLEWVSGVSWNSGSIAYADSVRGRFTISRDNAKNSLYLQMNSLRAEDTALYYCAKGRLLDVWGQGTTVTVSS chain 2: QSALTQPASVSGSPGQSITISCTGSSSDVGGYNYVSWYQQHPGKAPKLMIYDVTKRPSGVSNRFSGSKSGNTASLTISGLQAEDEADYYGAYSNTNFYVFGTGTKVTVL; 0.00022
